Listing of entries alongside the reported Emax.
Biological target: SMARCA2 (Homo sapiens)
Construct: endogenous in cells; host or cells: HT1080 (CRISPR HiBiT knock-in clone, generated in house)
Sequence (P51531 whole entry): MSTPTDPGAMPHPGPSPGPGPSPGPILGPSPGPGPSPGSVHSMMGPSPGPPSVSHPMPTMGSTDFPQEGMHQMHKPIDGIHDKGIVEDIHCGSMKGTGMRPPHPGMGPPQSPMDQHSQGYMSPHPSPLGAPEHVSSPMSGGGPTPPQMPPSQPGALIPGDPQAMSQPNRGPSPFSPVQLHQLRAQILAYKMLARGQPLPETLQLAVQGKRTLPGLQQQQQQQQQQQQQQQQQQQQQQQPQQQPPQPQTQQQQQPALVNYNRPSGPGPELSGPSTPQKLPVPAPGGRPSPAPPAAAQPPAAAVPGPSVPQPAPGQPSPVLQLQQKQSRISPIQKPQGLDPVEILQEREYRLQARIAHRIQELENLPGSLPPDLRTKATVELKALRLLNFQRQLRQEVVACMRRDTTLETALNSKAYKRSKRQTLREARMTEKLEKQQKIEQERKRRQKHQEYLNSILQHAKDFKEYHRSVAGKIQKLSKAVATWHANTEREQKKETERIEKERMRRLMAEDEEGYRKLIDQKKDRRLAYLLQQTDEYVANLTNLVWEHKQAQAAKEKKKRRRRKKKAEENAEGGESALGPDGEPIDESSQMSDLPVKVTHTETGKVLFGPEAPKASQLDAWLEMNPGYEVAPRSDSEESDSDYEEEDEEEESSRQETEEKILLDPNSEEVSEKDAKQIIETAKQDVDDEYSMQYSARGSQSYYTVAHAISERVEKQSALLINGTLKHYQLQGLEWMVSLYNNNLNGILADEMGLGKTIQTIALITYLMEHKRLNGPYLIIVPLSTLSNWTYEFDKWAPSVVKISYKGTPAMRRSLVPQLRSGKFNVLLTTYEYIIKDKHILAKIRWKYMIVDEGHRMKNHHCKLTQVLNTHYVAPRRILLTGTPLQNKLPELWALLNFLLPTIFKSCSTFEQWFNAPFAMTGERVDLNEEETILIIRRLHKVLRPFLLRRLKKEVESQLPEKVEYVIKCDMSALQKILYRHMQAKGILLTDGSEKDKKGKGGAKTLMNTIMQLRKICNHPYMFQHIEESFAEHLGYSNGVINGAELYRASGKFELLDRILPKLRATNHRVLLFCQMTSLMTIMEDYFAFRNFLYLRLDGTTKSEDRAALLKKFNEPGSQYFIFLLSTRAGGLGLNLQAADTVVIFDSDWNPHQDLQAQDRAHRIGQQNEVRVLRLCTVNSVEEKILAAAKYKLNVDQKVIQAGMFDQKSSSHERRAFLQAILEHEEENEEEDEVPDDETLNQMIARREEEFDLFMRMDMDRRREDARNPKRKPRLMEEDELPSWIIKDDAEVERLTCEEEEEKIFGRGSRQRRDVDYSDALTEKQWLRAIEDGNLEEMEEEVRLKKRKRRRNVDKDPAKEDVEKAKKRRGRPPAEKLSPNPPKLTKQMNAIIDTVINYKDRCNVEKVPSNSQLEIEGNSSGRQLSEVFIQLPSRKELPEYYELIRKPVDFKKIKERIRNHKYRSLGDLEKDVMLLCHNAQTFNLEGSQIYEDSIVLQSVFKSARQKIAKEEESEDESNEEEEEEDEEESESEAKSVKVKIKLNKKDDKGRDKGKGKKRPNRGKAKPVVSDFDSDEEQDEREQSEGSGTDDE
Experiment: SMARCA2 HiBiT degradation assay (cellular)
Type: cell-based
Conditions: A549, 6 h incubation; Emax = amount of residual protein remaining in the cell following compound treatment; table head names A549
Note: unit % is implicit; provide only the numeric part.

Record excerpt, results attached:
Nc1nnc(-c2ccccc2O)cc1OC1CCCN(c2ccc(N3CCN(CCCCCCCCCn4cc(C5(Nc6cccc7c6C(=O)N(C6CCC(=O)NC6=O)C7=O)CC5)nn4)CC3)cc2)C1 (stereo not drawn) : 37
Nc1nnc(-c2ccccc2O)cc1N1CCC(C(=O)NCC2CCN(C(=O)CN3CCC(c4ccc(NC5CCC(=O)NC5=O)cc4)CC3)CC2)(c2ccccc2)CC1 (stereo not drawn) : 38

Now for the molecule whose Emax we want.
### Prompt Look up Emax with SMARCA2 (Homo sapiens) for this molecule: Nc1nnc(-c2ccccc2O)cc1N1CC2CCC(C1)N2c1cccc(CN2CCN(C(=O)CN3CCC(c4ccc(NC5CCC(=O)NC5=O)cc4)CC3)CC2)c1 (racemic)
### Response 40
